# Test Target: Sigma2 (Rattus norvegicus, UniProt Q5U3Y7)
# Sequence (Q5U3Y7 whole entry): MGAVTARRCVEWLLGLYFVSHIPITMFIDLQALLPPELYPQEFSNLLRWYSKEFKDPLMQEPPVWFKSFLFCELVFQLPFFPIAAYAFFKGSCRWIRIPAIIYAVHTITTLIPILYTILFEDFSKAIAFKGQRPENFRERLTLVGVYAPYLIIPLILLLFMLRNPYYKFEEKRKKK
# Assay Method Text: NIMH-PDSP radioligand binding, Sigma-2
pKi: −log10 of the molar value.
This section presents compounds with their documented pKi values.
Measurement Name: pKi

{"columns": ["Compound", "Measurement Name", "Readout Value"],
 "data": [
  ["c1ccc(C2(NCCN3CCCC3)CC3CCC2C3)cc1 (stereo not drawn) [Compound 5e]", "pKi", "< 5.00"],
  ["NC1(c2ccc(F)cc2)CC2CCC1C2 (stereo not drawn) [Compound 4b]", "pKi", "< 5.00"],
  ["Fc1ccc(C2(NCCN3CCOCC3)CC3CCC2C3)cc1 (stereo not drawn) [Compound 5d]", "pKi", "< 5.00"],
  ["c1ccc(C2(NCCN3CCOCC3)CC3CCC2C3)cc1 (stereo not drawn) [Compound 5c]", "pKi", "< 5.00"],
  ["c1ccc(C2(NCCN3CCCCC3)CC3CCC2C3)cc1 (stereo not drawn) [Compound 5a]", "pKi", "< 5.00"],
  ["NC1(c2ccccc2)CC2CCC1C2 (stereo not drawn) [Compound 4a, 2-phenylbicyclo[2.2.1]heptan-2-amine]", "pKi", 6.00]
]}
